- target_or_system: UniProt P26684
- Sequence (P26684 whole entry): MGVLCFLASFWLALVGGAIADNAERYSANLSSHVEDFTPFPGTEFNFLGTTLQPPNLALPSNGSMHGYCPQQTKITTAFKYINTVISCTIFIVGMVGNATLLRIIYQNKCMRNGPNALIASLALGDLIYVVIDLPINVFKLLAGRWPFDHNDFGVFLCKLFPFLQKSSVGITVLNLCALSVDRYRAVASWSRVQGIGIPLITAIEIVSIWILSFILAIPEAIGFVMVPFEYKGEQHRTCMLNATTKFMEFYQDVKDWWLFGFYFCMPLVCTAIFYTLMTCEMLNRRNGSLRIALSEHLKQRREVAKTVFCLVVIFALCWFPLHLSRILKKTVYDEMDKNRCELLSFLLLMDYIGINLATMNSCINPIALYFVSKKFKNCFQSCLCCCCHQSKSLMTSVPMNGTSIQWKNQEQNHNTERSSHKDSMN
pIC50: −log10 of the molar value.
Please use condition met whenever pIC50 is not below 6, and condition not met whenever it is.

# count of solved cases: 4
CCCOc1ccc2c(c1)c(-c1ccc3c(c1)OCO3)c(C(=O)O)n2Cc1ccc2c(c1)OCO2    condition met
CN(C)c1cccc2c(S(=O)(=O)Nc3ccc4c(c3)OCO4)cccc12    condition met
COc1cc2c(-c3ccc4c(c3)OCO4)c(C(=O)O)n(Cc3ccc4c(c3)OCO4)c2cc1OC    condition met
CCCOc1ccc2c(c1)c(-c1ccc3c(c1)OCO3)c(C(=O)O)n2Cc1ccc2nonc2c1    condition not met

We now examine a further compound.
Ask: Quick check, pIC50 >= 6? COc1ccc(C2(O)OC(=O)C(c3ccc4nsnc4c3)=C2Cc2cc(OC)c(OC)c(OC)c2)cc1 (stereo unspecified)
Reply: condition met
